Item-by-item account of AChE-IC50 (μL mL^-1)
System: acetylcholine esterase (AChE), crude, from rice weevil
Construct: gene ace1; native, unpurified; supernatant of whole adult homogenate in phosphate buffer pH 7.4 (8775 g, 20 min)
PROTOCOL_DESCRIPTION: Ellman colorimetric assay, […] nm
Type: biochemical, Sitophilus oryzae
EXPERIMENTAL_SETUP: crude enzyme; acetylthiocholine iodide 2.5 mM, pH 7.4, 35 °C, 15 min preincubation, compound in ethanol
OUTCOME_MEASURE: AChE-IC50 (μL mL^-1) (µL mL^−1)

> print(dat)
                                    molecule  comparison.sign  reported.result
 1   CC1=CCC(O)(C(C)C)CC1 (stereo not drawn)                =            11.29
 2                          Cc1ccc(C(C)C)cc1                >              500
 3                        CC1=CCC(=C(C)C)CC1                =             1.10
 4           C=CC(O)CCCCC (stereo not drawn)                =            14.82
 5                         C=CC(=C)CCC=C(C)C                >              500
 6    C=CC(C)(O)CCC=C(C)C (stereo not drawn)                =            44.33
 7  C=C1CC[C@H]2O[C@]2(C)CC[C@@H]2[C@@H]1CC2(C)C [Caryophyllene oxide]                >              500
 8      C=C1CCC2CC1C2(C)C (stereo not drawn)                >              500
 9       CC(C)=CCCC(C)CCO (stereo not drawn)                =            86.08
10     C=C(C)C1CC=C(C)CC1 (stereo not drawn)                =             9.57
11  C=CC(C)(O)CCC=C(C)CCC=C(C)C (stereo not drawn)                =           331.24
12                     CC12CCC(CC1)C(C)(C)O2                =            31.13
